Examples of compounds with documented Average variation of the diastolic arterial pressure follow.
Tested on: hypertensive male rats of the Akamoto-Aoki line
test summary: Variation of arterial pressure upon intraperitoneal administration to hypertensive rats
Type: in vivo
run parameters: 2 hours; 50 mg/kg i.p. (nifedipine 1 mg/kg i.p.)

Sample records with Average variation of the diastolic arterial pressure:
C#CC[N+](C)(C)NCCC(=O)[O-] :: -7 % of the initial
CC[N+](C)(CC)NCCC(=O)[O-] [monohydrate] :: +1 % of the initial
C[N+](C)(Cc1ccccc1)NCCC(=O)[O-] :: -21 % of the initial
C[N+](C)(Cc1cccc2ccccc12)NCCC(=O)[O-] :: -2 % of the initial
C=CC[N+](C)(C)NCCC(=O)[O-] :: -29 % of the initial
COC(=O)C1=C(C)NC(C)=C(C(=O)OC)C1c1ccccc1[N+](=O)[O-] [Nifedipine, reference compound] :: -21 % of the initial

Please state recorded Average variation of the diastolic arterial pressure (tested on hypertensive male rats of the Akamoto-Aoki line) of CC[N+](C)(C)NCCC(=O)[O-] [monohydrate] -22 % of the initial

====

Tested on: hypertensive male rats of the Akamoto-Aoki line
test summary: Variation of arterial pressure upon intraperitoneal administration to hypertensive rats
Format: in vivo
run parameters: 2 hours; 50 mg/kg i.p. (nifedipine 1 mg/kg i.p.)
value type: Average variation of the systolic arterial pressure

Field: example entries. Status: answers known.
CC[N+](C)(C)NCCC(=O)[O-] [monohydrate] :: -13 % of the initial
C#CC[N+](C)(C)NCCC(=O)[O-] :: -10 % of the initial
CC[N+](C)(CC)NCCC(=O)[O-] [monohydrate] :: 0 % of the initial
C=CC[N+](C)(C)NCCC(=O)[O-] :: -18 % of the initial
C[N+](C)(Cc1ccccc1)NCCC(=O)[O-] :: -15 % of the initial
C[N+](C)(Cc1cccc2ccccc12)NCCC(=O)[O-] :: -3 % of the initial

Now consider the entry below.
Fill in the blank: the reported Average variation of the systolic arterial pressure of COC(=O)C1=C(C)NC(C)=C(C(=O)OC)C1c1ccccc1[N+](=O)[O-] [Nifedipine, reference compound] is ____. -8 % of the initial

====

Average variation of the systolic arterial pressure listing for selected compounds.
Test system: hypertensive male rats of the Akamoto-Aoki line
test summary: Variation of arterial pressure upon intraperitoneal administration to hypertensive rats
Type: in vivo
run parameters: 24 hours; 50 mg/kg i.p.

Worked cases, Average variation of the systolic arterial pressure given:
CC[N+](C)(C)NCCC(=O)[O-] [monohydrate] :: -18 % of the initial
C=CC[N+](C)(C)NCCC(=O)[O-] :: -3 % of the initial
C[N+](C)(Cc1ccccc1)NCCC(=O)[O-] :: -9 % of the initial

Endpoint output: Average variation of the systolic arterial pressure of C[N+](C)(Cc1cccc2ccccc12)NCCC(=O)[O-] . Value? -4 % of the initial

====

System: arrhythmia caused by introduction of calcium chloride
test summary: Antiarrhythmic activity on the model of arrhythmia caused by calcium chloride (antagonism towards calcium)
Format: in vivo, mice
run parameters: compound dose 15 mg/kg i.p.; control 85.0
value type: Dose of calcium chloride causing arrhythmia
// print number alone

C#CC[N+](C)(C)NCCC(=O)[O-] :: 120.0
CC[N+](C)(CC)NCCC(=O)[O-] [monohydrate] :: 120.0
C[N+](C)(CC[N+](C)(C)NCCC(=O)[O-])NCCC(=O)[O-] [dihydrate] :: 108.5
C[N+](C)(Cc1cccc2ccccc12)NCCC(=O)[O-] :: 126.7
CCC[N+](C)(C)NCCC(=O)[O-] :: 125.3

Quick one: Dose of calcium chloride causing arrhythmia for CC[N+](CC)(CC)NCCC(=O)[O-] [3-(2,2,2-Triethylhydrazinium)propionate, monohydrate] ? 127.0

Request the reported Dose of calcium chloride causing arrhythmia associated with C[N+](C)(CCc1ccccc1)NCCC(=O)[O-] [dihydrate] 110.5
